# Tested on: human TLR7 (Homo sapiens, UniProt Q9NYK1)
# Construct: HA; host or cells: 293XL-hTLR7-HA (HEK293)
# Sequence (Q9NYK1 27-1049): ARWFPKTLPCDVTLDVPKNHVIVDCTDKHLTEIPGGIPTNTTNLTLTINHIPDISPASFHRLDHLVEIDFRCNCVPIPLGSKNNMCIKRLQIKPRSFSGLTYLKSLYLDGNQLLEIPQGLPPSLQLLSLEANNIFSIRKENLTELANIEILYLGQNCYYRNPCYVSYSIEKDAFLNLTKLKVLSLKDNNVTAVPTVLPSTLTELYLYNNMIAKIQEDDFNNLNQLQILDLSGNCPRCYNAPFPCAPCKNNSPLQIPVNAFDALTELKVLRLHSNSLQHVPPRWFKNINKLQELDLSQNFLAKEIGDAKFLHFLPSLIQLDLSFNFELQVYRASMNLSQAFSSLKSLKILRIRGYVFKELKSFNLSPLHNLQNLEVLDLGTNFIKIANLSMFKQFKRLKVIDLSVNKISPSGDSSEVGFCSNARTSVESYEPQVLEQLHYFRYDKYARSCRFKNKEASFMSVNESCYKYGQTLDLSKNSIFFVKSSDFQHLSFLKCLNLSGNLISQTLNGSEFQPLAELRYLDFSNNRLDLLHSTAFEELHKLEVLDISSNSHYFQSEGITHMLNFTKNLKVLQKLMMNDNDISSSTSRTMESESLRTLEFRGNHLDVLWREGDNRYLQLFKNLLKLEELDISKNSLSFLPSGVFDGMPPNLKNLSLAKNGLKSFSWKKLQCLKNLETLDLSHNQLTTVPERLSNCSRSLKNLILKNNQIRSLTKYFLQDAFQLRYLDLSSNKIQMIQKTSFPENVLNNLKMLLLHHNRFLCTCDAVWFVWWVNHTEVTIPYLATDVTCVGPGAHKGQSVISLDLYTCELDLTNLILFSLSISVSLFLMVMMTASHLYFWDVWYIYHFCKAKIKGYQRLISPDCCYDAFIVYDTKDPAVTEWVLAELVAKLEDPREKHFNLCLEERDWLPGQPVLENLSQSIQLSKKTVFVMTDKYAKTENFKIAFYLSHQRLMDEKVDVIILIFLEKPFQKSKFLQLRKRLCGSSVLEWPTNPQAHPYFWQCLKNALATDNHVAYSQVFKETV
# Assay name: HEK-TLR7 NF-κB-luciferase reporter, R848 stimulation
# Type: cell-based
# Study conditions: HEK-TLR7; 100 nM ASO; percentage of R848 without ASO (Alharbi et al., 2020)
In the oligonucleotide strings, read from the 5' end, every base follows the letter of its sugar. An asterisk marks phosphorothioate; unmarked linkages are phosphodiester. Other units and linkages are bracketed, terminal groups are in braces. A string of capitals states the bases alone. d = 2'-deoxy (DNA); m = 2'-O-methyl
Measured property: TLR7-100 nM: averaged NF-κB-Luciferase relative to R848

{"Substance": "mU*mA*mU*mU*mU*C*C*A*C*A*T*G*C*C*C*mA*mG*mU*mG*mU (mU*mA*mU*mU*mU*dC*dC*dA*dC*dA*dT*dG*dC*dC*dC*mA*mG*mU*mG*mU; antisense) [[CDKN2B-AS1]627]", "Tested on": "human TLR7 (Homo sapiens, UniProt Q9NYK1)", "Readout value": "30.54%"}
{"Substance": "mG*mA*mU*mG*mG*T*T*C*C*A*G*T*C*C*C*mU*mC*mU*mU*mC (GAUGGTTCCAGTCCCUCUUC; antisense; sugars from the 5' end m5 d10 m5, all phosphorothioate, methylation of C not given here) [[LINC-PINT]1497.1]", "Tested on": "human TLR7 (Homo sapiens, UniProt Q9NYK1)", "Readout value": "22.32%"}
{"Substance": "mC*mC*mU*mA*mG*A*A*A*G*A*A*G*C*A*A*mA*mG*mA*mU*mU (mC*mC*mU*mA*mG*dA*dA*dA*dG*dA*dA*dG*dC*dA*dA*mA*mG*mA*mU*mU) [[CDKN2B-AS1]1522]", "Tested on": "human TLR7 (Homo sapiens, UniProt Q9NYK1)", "Readout value": "57.20%"}
{"Substance": "mC*mU*mU*mU*mA*T*A*T*T*A*C*A*A*A*G*mC*mU*mA*mC*mU (mC*mU*mU*mU*mA*dT*dA*dT*dT*dA*dC*dA*dA*dA*dG*mC*mU*mA*mC*mU; antisense) [[LINC-PINT]2755]", "Tested on": "human TLR7 (Homo sapiens, UniProt Q9NYK1)", "Readout value": "54.83%"}
{"Substance": "mU*mU*mG*mG*mC*C*T*G*T*G*G*A*T*G*C*mU*mU*mU*mG*mU (mU*mU*mG*mG*mC*dC*dT*dG*dT*dG*dG*dA*dT*dG*dC*mU*mU*mU*mG*mU) [[LINC-PINT]2673.1]", "Tested on": "human TLR7 (Homo sapiens, UniProt Q9NYK1)", "Readout value": "21.43%"}
{"Substance": "mG*mG*mU*mG*mG*C*C*A*C*A*G*G*C*A*A*mC*mG*mU*mC*mA (GGUGGCCACAGGCAACGUCA; antisense; sugars from the 5' end m5 d10 m5, all phosphorothioate, methylation of C not given here) [[CDKN2B-AS1]2196]", "Tested on": "human TLR7 (Homo sapiens, UniProt Q9NYK1)", "Readout value": "39.07%"}
{"Substance": "mA*mA*mU*mA*mU*C*T*G*C*T*G*C*C*C*A*mC*mC*mU*mU*mC (mA*mA*mU*mA*mU*dC*dT*dG*dC*dT*dG*dC*dC*dC*dA*mC*mC*mU*mU*mC; antisense) [[CDKN2B-AS1]832]", "Tested on": "human TLR7 (Homo sapiens, UniProt Q9NYK1)", "Readout value": "43.66%"}
{"Substance": "mG*mC*mG*mU*mA*G*T*T*T*C*T*C*T*T*C*mC*mU*mC*mC*mC (GCGUAGTTTCTCTTCCUCCC; sugars from the 5' end m5 d10 m5, all phosphorothioate, methylation of C not given here) [[LINC-PINT]935 KL]", "Tested on": "human TLR7 (Homo sapiens, UniProt Q9NYK1)", "Readout value": "27.23%"}
{"Substance": "mG*mU*mC*mC*mC*A*T*C*C*C*T*T*C*T*G*mC*mU*mG*mC*mC (GUCCCATCCCTTCTGCUGCC; antisense; sugars from the 5' end m5 d10 m5, all phosphorothioate, methylation of C not given here) [[LINC-PINT]102]", "Tested on": "human TLR7 (Homo sapiens, UniProt Q9NYK1)", "Readout value": "22.47%"}
